# testSystem: JAK2 (catalytic domain, His-tag) (Homo sapiens)
# Construct: All four purified enzymes contain only the catalytic domain; His (N); purchased Carna Biosciences, Inc; host or cells: baculovirus expression system
# Sequence (O60674 849-1124 limits assumed): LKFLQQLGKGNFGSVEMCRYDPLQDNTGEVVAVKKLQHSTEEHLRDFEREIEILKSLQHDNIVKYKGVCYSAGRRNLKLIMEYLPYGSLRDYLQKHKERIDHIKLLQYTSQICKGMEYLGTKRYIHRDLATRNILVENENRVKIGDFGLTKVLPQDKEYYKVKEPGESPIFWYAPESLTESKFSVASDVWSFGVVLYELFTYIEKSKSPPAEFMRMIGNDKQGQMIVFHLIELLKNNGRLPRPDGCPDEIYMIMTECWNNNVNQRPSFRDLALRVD
# experimentSummary: JAK kinase assay (HTRF, phosphorylation of TK substrate-biotin), JAK2
# Format: biochemical
# conditionsUsed: HTRF assay, ATP at Km (4 μM); read-out: JAK2 kinase inhibitory activity (EC50 indicator)
Hi there, I'd appreciate the recorded EC50 for every entry that follows.

Name the reported EC50 value associated with the molecule N#CCc1ccc(CC(=O)N2CCN(c3nc(N)nc4[nH]ccc34)CC23CC3)cc1 [Example 307]
100 to 500 nM

// query EC50 value for entry CS(=O)(=O)c1ccc(C(=O)N2[C@@H]3CC[C@@H]2CN(c2ncnc4[nH]ccc24)C3)cc1 [Example 356]
< 100 nM

EC50 lookup needed for CS(=O)(=O)c1ccc2[nH]c(C(=O)N3CCN(c4ncnc5[nH]ccc45)CC34CC4)cc2c1 [Example 365] , thanks.
< 100 nM

// lookup EC50 for N#Cc1cccc(CC(=O)N2CCN(c3nc(N)nc4[nH]ccc34)CC23CC3)c1 [Example 311]
100 to 500 nM

Please give the measured EC50 for this molecule: O=C(c1ccc(S(=O)(=O)NCCc2cccs2)cc1)N1CCN(c2ncnc3[nH]ccc23)CC12CC2 [Example 397]
< 100 nM

For Cc1cc(C(=O)N2[C@@H]3CC[C@H]2CN(c2ncnc4[nH]ccc24)C3)ccc1S(N)(=O)=O [Example 392] , what is its reported EC50?
< 100 nM

# EC50 lookup, item CC(C)S(=O)(=O)Nc1ccc(C(=O)N2CCN(c3ncnc4[nH]ccc34)CC23CC3)cc1 [Example 432]
< 100 nM

Item under review: COc1cnc2[nH]ccc2c1N1CCN(C(=O)c2ccc(-c3ccccc3)s2)C2(CC2)C1 [Example 290] . Reported EC50?
> 500 nM

Give its EC50 value. Item: O=C(c1csc2ccccc12)N1[C@H]2CC[C@H]1CN(c1ncnc3[nH]ccc13)C2 [Example 246]
< 100 nM

Sample CC(C)(C#N)C(=O)N1[C@@H]2CC[C@@H]1CN(c1ncnc3[nH]ccc13)C2 [Example 239] — what was its EC50?
100 to 500 nM

// lookup EC50 for CCCS(=O)(=O)Nc1ccc(C(=O)N2CCN(c3ncnc4[nH]ccc34)CC23CC3)cc1 [Example 431]
< 100 nM

Field request: EC50 | item: NC(=O)c1ccc(C(=O)N2[C@@H]3CC[C@@H]2CN(c2ncnc4[nH]ccc24)C3)cc1 [Example 358]
< 100 nM

For O=C(c1ccccc1)N1C[C@@H]2C[C@H]1CN2c1ncnc2[nH]ccc12 (racemic) [Example 253] , what is its reported EC50?
> 500 nM

Any idea what EC50 was measured for O=C(c1ccc(-c2ccccc2)s1)N1CCN(c2ncnc3[nH]ccc23)CC12CC2 [Example 215] ?
< 100 nM

Fill in: EC50 of Cc1c[nH]c2ncnc(N3CCN(C(=O)Cc4ccc(CC#N)cc4)C4(CC4)C3)c12 [Example 328] is ___
> 500 nM

Dear colleague, I am looking for the recorded EC50 of the following molecule: O=C(c1cccnc1)N1CCN(c2ccnc3[nH]ccc23)CC12CC2 [Example 223]
100 to 500 nM

---

Task for the reader: assign each of the following compounds its reported EC50.
# testSystem: JAK1 (aa 850-1154, catalytic domain, GST-tag) (Homo sapiens, UniProt P23458)
# Construct: JAK1 (aa 850-1154) and TYK2 (aa 871-1187) are expressed with an N-terminally fused GST-tag; GST (N); purchased Carna Biosciences, Inc; host or cells: baculovirus expression system
# Sequence (P23458 850-1154): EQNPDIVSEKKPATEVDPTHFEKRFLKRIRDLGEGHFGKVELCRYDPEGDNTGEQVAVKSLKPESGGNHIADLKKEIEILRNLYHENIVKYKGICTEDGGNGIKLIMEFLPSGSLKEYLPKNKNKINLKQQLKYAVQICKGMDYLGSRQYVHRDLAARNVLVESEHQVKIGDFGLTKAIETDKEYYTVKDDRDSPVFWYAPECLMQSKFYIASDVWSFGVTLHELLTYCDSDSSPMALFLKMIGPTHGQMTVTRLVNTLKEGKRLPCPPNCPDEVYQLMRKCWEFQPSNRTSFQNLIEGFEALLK
# experimentSummary: JAK kinase assay (HTRF, phosphorylation of TK substrate-biotin), JAK1
# Format: biochemical
# conditionsUsed: HTRF assay, ATP at Km (7 μM); read-out: JAK1 kinase inhibitory activity (EC50 indicator)

What does the data say about its EC50? Entry: Nc1nc(N2CCN(C(=O)Cc3ccc(C(F)(F)F)cc3)C3(CC3)C2)c2cc[nH]c2n1 [Example 309]
< 100 nM

Need EC50, item N#Cc1cccc(CC(=O)N2CCN(c3ncnc4[nH]cc(Cl)c34)CC23CC3)c1 [Example 323]
> 500 nM

Bench note: what EC50 did CCS(=O)(=O)Nc1ccc(C(=O)N2CCN(c3ncnc4[nH]ccc34)CC23CC3)cc1 [Example 210] show?
< 100 nM

Which EC50 value belongs to Nc1nc(N2CCN(C(=O)c3cnccn3)C3(CC3)C2)c2cc[nH]c2n1 [Example 302] ?
100 to 500 nM

Given Cc1c[nH]c2ncnc(N3CCN(C(=O)Cc4cccc(CC#N)c4)C4(CC4)C3)c12 [Example 327] , state its recorded EC50.
> 500 nM

Can you look up the measured EC50 of N#Cc1ccc(C(=O)N2C[C@@H]3C[C@H]2CN3c2ncnc3[nH]ccc23)cc1 [Example 258] for me?
> 500 nM

Could you tell me which EC50 is on file for CCc1sc(C(=O)N2CCN(c3ncnc4[nH]ccc34)CC23CC3)cc1Br [Example 209] ?
< 100 nM

Field request: EC50 | item: COc1cnc2[nH]ccc2c1N1CCN(C(=O)c2ccc(C#N)cc2)C2(CC2)C1 [Example 286]
> 500 nM

// lookup EC50 for COc1cnc2[nH]ccc2c1N1CCN(C(=O)c2cccc(C#N)c2)C2(CC2)C1 [Example 287]
> 500 nM

Find the recorded EC50 belonging to Cc1sc(C(=O)N2CCN(c3ncnc4[nH]ccc34)CC23CC3)cc1S(N)(=O)=O [Example 374] and report it.
< 100 nM

Please give the measured EC50 for this compound: O=C(c1ccc(OC(F)(F)F)cc1)N1CCN(c2ccnc3[nH]ccc23)CC12CC2 [Example 238]
< 100 nM

Returns the measured EC50 for the input compound. Input: Cc1ccc(S(N)(=O)=O)cc1C(=O)N1CCN(c2ncnc3[nH]ccc23)CC12CC2 [Example 388]
< 100 nM

Entry O=C(c1ccc(S(=O)(=O)NCCc2cccs2)cc1)N1CCN(c2ncnc3[nH]ccc23)CC12CC2 [Example 397] has what EC50?
< 100 nM

Query: EC50; subject: N#Cc1ccc(CC(=O)N2C[C@@H]3C[C@H]2CN3c2ncnc3[nH]ccc23)cc1 [Example 278]
> 500 nM

What does the data say about its EC50? Entry: O=C(c1ccc2c(c1)CCCC2)N1CCN(c2ncnc3[nH]ccc23)CC12CC2 [Example 218]
< 100 nM

Consider the compound shown here: N#CCc1ccc(C(=O)N2CCN(c3ccnc4[nH]ccc34)CC23CC3)cc1 [Example 230] What is its recorded EC50?
100 to 500 nM

Need EC50, item O=C(c1cc(O)cs1)N1CCN(c2ncnc3[nH]ccc23)CC12CC2 [Example 385]
< 100 nM

Would you kindly share the measured EC50 for Cc1cnc(C(=O)N2CCN(c3ncnc4[nH]ccc34)CC23CC3)cn1 [Example 414] ?
< 100 nM

Any idea what EC50 was measured for NS(=O)(=O)c1ccc(C(=O)N2CCN(c3ncnc4[nH]ccc34)CC23CC3)cc1 [Example 369] ?
< 100 nM

Item COC(=O)c1cc2c(N3CCN(C(=O)C4(C#N)CC4)C4(CC4)C3)ncnc2[nH]1 [Example 336] has what recorded EC50?
> 500 nM

If you can, please state the reported EC50 value of COc1cc(OC)cc(C(=O)N2CCN(c3ncnc4[nH]ccc34)CC23CC3)c1 [Example 213] .
< 100 nM

Need EC50, item Cc1sc(C(=O)N2CCN(c3ncnc4[nH]ccc34)CC23CC3)cc1Br [Example 208]
< 100 nM

Would you kindly share the measured EC50 for O=C(c1cccc2cc(O)ccc12)N1[C@@H]2CC[C@@H]1CN(c1ncnc3[nH]ccc13)C2 [Example 359] ?
< 100 nM

Please report the recorded EC50 for NS(=O)(=O)c1cnn(CC(=O)N2CCN(c3ncnc4[nH]ccc34)CC23CC3)c1 [Example 412] .
< 100 nM

Data request, read-out EC50, for CS(=O)(=O)c1ccc(C(=O)N2[C@@H]3CC[C@@H]2CN(c2ncnc4[nH]ccc24)C3)cc1 [Example 356]
< 100 nM

Which EC50 is listed for Cc1cc(S(N)(=O)=O)ccc1C(=O)N1[C@@H]2CC[C@H]1CN(c1ncnc3[nH]ccc13)C2 [Example 391] ?
100 to 500 nM

Data request, read-out EC50, for COc1cnc2[nH]ccc2c1N1CCN(C(=O)CCCC#N)C2(CC2)C1 [Example 293]
< 100 nM

So what's the measured EC50 for this one? N#Cc1ccccc1C(=O)N1[C@@H]2CC[C@@H]1CN(c1ncnc3[nH]ccc13)C2 [Example 249]
100 to 500 nM

Find the recorded EC50 belonging to N#Cc1ccc(C2(C(=O)N3CCN(c4ncnc5[nH]ccc45)CC34CC4)CC2)cc1 [Example 429] and report it.
< 100 nM

Name the reported EC50 value associated with the compound Cc1nc2ccccc2nc1C(=O)N1CCN(c2ncnc3[nH]ccc23)CC12CC2 [Example 419]
< 100 nM

Which EC50 is listed for O=C(c1ccc(OC(F)(F)F)cc1)N1[C@@H]2CC[C@@H]1CN(c1ncnc3[nH]ccc13)C2 [Example 251] ?
< 100 nM

So what's the measured EC50 for this one? N#Cc1cccc(C(=O)N2CCN(c3ccnc4[nH]ccc34)CC23CC3)c1 [Example 227]
< 100 nM
